Measured values drawn from PubChem BioAssay (NCI) for this set.

system: HCT-15 colon; experiment: NCI-60 one-dose screen, 48 h; details: 10 µM unless noted
About 83,000 compounds went through this panel and 20% of them were active in at least one assay; those are over-represented in the sample as a whole. Calls of active or inactive are those of the source. The calls were made as follows: active = growth percent below 10; inactive = the rest.
Choose one outcome from this list and give only that: active, inactive

Study these solved cases before continuing.
1) O=C(CN1C(=O)CCC1=O)Nc1ncc(Cc2ccc(F)cc2)s1 ... inactive
2) CC12CCC3c4ccccc4CCC3(CO1)C2 (stereo unspecified) ... inactive
3) COc1ccc(/C=C2\COc3ccc(O)c(O)c3C2=O)cc1 ... active
4) CC(C)(C)n1cc(-c2ccnc(NCCCNS(=O)(=O)c3ccc(F)cc3)c2)c(-c2cccc(F)c2)n1 ... active
5) CCn1c(=S)sc2c(Nc3ccc(F)cc3)nc(-c3cccnc3)nc21 ... inactive
6) O=CC1(C2(C=O)c3ccccc3-c3ccccc32)c2ccccc2-c2ccccc21 ... active
7) CCCCOC(=O)OCc1cc(=O)c(O)co1 ... inactive
8) O=C(Nc1cccc([N+](=O)[O-])c1)c1cc2ccccc2cc1O ... inactive

Would you mind telling me which call this test gave `C=C1C(=O)O[C@H]2[C@H]1CC/C(COC(=O)N[C@H]1C[C@H](O[C@H]3C[C@](O)(C(=O)CO)Cc4c(O)c5c(c(O)c43)C(=O)c3c(OC)cccc3C5=O)O[C@@H](C)[C@H]1O)=C\CC[C@@]1(C)O[C@@H]21` ? inactive

Would you mind telling me which call this test gave `COc1cc(-c2csc(NC(=O)c3cc(-n4cnc(C)c4)cc(C(F)(F)F)c3)n2)cc(OC)c1OC` ? inactive

* * *

system: MDA-MB-435 melanoma; assay: NCI-60 one-dose screen, 48 h; details: 10 µM unless noted
The panel holds about 83,000 compounds, 20% with a hit somewhere; the sample as a whole holds those more often. Activity calls are given as the source filed them. Rule for the calls: active = growth percent below 10; inactive = the rest.
Choose one outcome from this list and give only that: active, inactive

1. CCN(CC)CCOc1ccc(C(=C(C)c2ccc(Cl)cc2)c2ccc(OCCN(CC)CC)cc2)cc1 ... active

Would you mind telling me which call this test gave `C=C(C)[C@@H]1CC[C@]2(C(=O)O)CC[C@]3(C)[C@H](CC[C@@H]4[C@@]5(C)C[C@@H](Cc6cn(CCO[C@@H]7O[C@H](COC(C)=O)[C@H](OC(C)=O)[C@H](OC(C)=O)[C@H]7OC(C)=O)nn6)[C@H](O)C(C)(C)[C@@H]5CC[C@]43C)[C@@H]12` ? inactive

Would you mind telling me which call this test gave `COc1cc(CNC(=O)CCCC/C=C/C(C)C)ccc1OCc1nnc(Nc2ccc([N+](=O)[O-])cc2)o1` ? inactive

* * *

test system: CAKI-1 renal; assay: NCI-60 one-dose screen, 48 h (100 = growth as untreated, 0 = no growth, -100 = all killed); details: 10 µM unless noted
Compounds without any hit were thinned out: in the full panel of roughly 83,000, 20% have a hit.
assayReadout: growth (%)
Answers are plain numbers, in %.

Examples with their reported growth follow.
1) O=C(c1ccc(-c2ccccc2)cc1)c1ccc([N+](=O)[O-])cc1 ... 88.1
2) O=C1c2ccc3c4ccc5c6c(ccc(c7ccc(c2c37)C(=O)N1CCC[P+](c1ccccc1)(c1ccccc1)c1ccccc1)c64)C(=O)N(CCC[P+](c1ccccc1)(c1ccccc1)c1ccccc1)C5=O ... 0.659
3) CC(C)=NNc1ccccn1 ... 29.1
4) CCCCCCC1(C)NCCO1 (stereo not drawn) ... 92.9

For each of the compounds below, state growth.
1. O=C(Nc1nc2ccc(F)cc2s1)c1cccnc1Nc1ccc(Cl)cc1
2. CC12CCC3c4ccccc4CCC3(CO1)C2 (stereo not drawn)
3. CS(=O)(=O)Nc1cc(-c2ccc3ncnc(Nc4c(Cl)ccc5c4OCO5)c3c2)cnc1Cl
4. N#C/C(=C\c1ccc(-c2ccc(Cl)cc2)o1)C(=O)Nc1ncc(Cc2ccc(Cl)cc2)s1
5. Cc1ccc(C(C(N)=O)C(C(N)=O)c2ccccc2)cc1 (stereo not drawn)

1. 20.2
2. 101
3. -30.4
4. 39.1
5. 101

For each of the compounds below, state growth.
1. Nc1ncnc2c1N=C(c1ccc(Cl)cc1)CC(c1ccc3c(c1)OCO3)N2 (stereo not drawn)
2. O=C(Cc1ccccc1)Nc1nc(O)c(/C=C2\C(=O)C=Cc3ccccc32)s1
3. COc1cc(OC)c2sc(-c3ccc(-n4cncc4-c4ccc(OC)c(OC)c4)cc3)nc2c1
4. O=S(=O)(Nc1ccc(Cl)cc1)c1ccc(-c2cnc(C3CC3)o2)cc1
5. C/C(=N\NC(=O)c1ccccc1O)c1cccc(/C(C)=N/NC(=O)c2ccccc2O)n1
6. O=C(COc1ccc(-c2nc3ccccc3[nH]2)cc1)N=Nc1c(O)[nH]c2ccc(Cl)cc12
7. CN(CCn1sc(=O)n(Cc2ccccc2)c1=O)Cc1ccc2c(Cl)cc(Cl)c(O)c2n1

84.1
85.3
8.81
31.6
14.5
93.9
46.4
